FYI, the data here is from patent US7727739B2.

test: Fluorescence lifetimes stated for labels and typical substrates; assay type: physicochemical; details: free label
Measured lifetime of fluorescent label accompanies every entry in the list below.
Give a bare numeral; the unit ns is implied.

For the compound O=C(O)CCCCCNC(=O)c1cccc2c(=O)c3ccccc3[nH]c12 , what lifetime of fluorescent label is on record?
4

For the compound O=C(O)CCCCCn1c2ccccc2c(=O)c2cc(Br)ccc21 , what lifetime of fluorescent label is on record?
8

For the compound O=C(O)CCCCCn1c2ccccc2c(=O)c2ccccc21 , what lifetime of fluorescent label is on record?
14

For the compound CC(=O)Nc1ccc2c(c1)c(=O)c1ccccc1n2CCCCCC(=O)O , what lifetime of fluorescent label is on record?
17
